- study-target: SWI/SNF-related matrix-associated actin-dependent regulator of chromatin subfamily A member 4 (Homo sapiens)
- Sequence (P51532 whole entry): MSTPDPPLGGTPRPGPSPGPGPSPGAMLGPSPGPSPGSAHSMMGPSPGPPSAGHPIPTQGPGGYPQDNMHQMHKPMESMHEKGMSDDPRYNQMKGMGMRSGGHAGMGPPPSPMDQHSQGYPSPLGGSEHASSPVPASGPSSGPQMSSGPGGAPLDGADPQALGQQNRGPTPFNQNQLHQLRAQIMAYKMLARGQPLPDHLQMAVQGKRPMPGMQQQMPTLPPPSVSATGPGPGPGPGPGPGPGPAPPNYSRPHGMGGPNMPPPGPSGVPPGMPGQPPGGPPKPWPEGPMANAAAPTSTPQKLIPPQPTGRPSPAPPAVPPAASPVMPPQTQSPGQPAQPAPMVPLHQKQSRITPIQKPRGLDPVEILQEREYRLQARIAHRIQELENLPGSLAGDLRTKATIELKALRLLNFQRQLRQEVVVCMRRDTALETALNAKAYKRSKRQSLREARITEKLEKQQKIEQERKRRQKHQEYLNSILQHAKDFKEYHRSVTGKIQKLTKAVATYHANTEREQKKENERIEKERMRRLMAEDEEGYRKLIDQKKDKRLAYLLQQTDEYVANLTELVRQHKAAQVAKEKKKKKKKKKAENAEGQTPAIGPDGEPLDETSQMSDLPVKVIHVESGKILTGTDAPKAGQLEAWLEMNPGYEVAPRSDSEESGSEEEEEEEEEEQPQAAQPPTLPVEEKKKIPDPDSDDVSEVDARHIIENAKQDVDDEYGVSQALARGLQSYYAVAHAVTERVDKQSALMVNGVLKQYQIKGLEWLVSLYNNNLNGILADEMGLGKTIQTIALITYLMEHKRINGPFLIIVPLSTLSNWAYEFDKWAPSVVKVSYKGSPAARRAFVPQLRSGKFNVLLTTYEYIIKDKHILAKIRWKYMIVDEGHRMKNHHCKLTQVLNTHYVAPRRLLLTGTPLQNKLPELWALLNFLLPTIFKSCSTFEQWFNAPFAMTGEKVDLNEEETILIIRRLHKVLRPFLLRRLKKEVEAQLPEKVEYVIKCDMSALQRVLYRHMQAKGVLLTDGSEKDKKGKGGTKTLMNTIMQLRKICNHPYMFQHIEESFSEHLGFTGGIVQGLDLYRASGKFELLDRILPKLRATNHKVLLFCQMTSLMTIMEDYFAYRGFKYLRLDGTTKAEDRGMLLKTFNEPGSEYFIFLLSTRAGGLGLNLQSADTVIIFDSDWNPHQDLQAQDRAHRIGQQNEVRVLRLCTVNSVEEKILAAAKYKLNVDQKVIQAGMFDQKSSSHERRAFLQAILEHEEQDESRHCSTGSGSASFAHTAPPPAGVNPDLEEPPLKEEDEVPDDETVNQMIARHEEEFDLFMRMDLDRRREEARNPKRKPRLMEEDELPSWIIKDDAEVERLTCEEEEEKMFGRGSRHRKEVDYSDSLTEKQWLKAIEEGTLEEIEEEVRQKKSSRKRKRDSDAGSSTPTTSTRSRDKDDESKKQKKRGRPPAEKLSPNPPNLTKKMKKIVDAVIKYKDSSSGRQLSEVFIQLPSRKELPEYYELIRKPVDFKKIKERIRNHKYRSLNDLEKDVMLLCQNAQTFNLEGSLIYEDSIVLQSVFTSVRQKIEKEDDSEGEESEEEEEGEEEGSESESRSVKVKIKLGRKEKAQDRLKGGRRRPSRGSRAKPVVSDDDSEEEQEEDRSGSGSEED
pIC50: −log10 of the molar value.
measured-attribute: pIC50

Solved entries:
molecule_smiles=Cc1ncsc1-c1ccc([C@H](C)NC(=O)[C@@H]2C[C@@H](O)CN2C(=O)[C@@H](c2cc(OCCCN3CCC(c4ccc5c(c4)C(C)(C)c4nc(=O)c6c(Cl)cccc6n4-5)CC3)no2)C(C)C)cc1 reading=7.08
molecule_smiles=O=c1nc2n(c3cccc(Cl)c13)-c1ccc(C3CCNCC3)cc1C21CCCCC1 reading=7.74
molecule_smiles=O=c1nc2n(c3cccc(Cl)c13)-c1cc(C3CCNCC3)ccc1C21CCCCC1 reading=7.40

I. Cc1ncsc1-c1ccc([C@H](C)NC(=O)[C@@H]2C[C@@H](O)CN2C(=O)[C@@H](c2cc(N3CCC(CN4CCC(c5ccc6c(c5)C(C)(C)c5nc(=O)c7c(Cl)cccc7n5-6)CC4)CC3)no2)C(C)C)cc1
II. Cc1ncsc1-c1ccc([C@H](C)NC(=O)[C@@H]2C[C@@H](O)CN2C(=O)[C@@H](c2cc(OCCCCN3CCC(c4ccc5c(c4)C(C)(C)c4nc(=O)c6c(Cl)cccc6n4-5)CC3)no2)C(C)C)cc1
III. CC1(C)c2c(C3CCNCC3)cccc2-n2c1nc(=O)c1c(Cl)cccc12
Task for the reader: rank each entry by its pIC50, from the minimum upward. Use the labels to give the ranking in the order requested.
III, II, I
(III: 6.77, II: 7.01, I: 7.57)

* * *

- study-target: von Hippel-Lindau disease tumor suppressor/SWI/SNF-related matrix-associated actin-dependent regulator of chromatin subfamily A member 2 (Homo sapiens, UniProt P51531+P40337)
- Sequence (P40337 whole entry, looked up): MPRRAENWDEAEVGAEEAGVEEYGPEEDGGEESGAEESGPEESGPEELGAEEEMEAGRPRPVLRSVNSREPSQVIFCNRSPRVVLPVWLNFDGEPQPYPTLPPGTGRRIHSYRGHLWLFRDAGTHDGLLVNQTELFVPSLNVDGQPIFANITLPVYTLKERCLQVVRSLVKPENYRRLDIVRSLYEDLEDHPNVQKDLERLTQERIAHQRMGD
- Sequence (P51531 whole entry, looked up): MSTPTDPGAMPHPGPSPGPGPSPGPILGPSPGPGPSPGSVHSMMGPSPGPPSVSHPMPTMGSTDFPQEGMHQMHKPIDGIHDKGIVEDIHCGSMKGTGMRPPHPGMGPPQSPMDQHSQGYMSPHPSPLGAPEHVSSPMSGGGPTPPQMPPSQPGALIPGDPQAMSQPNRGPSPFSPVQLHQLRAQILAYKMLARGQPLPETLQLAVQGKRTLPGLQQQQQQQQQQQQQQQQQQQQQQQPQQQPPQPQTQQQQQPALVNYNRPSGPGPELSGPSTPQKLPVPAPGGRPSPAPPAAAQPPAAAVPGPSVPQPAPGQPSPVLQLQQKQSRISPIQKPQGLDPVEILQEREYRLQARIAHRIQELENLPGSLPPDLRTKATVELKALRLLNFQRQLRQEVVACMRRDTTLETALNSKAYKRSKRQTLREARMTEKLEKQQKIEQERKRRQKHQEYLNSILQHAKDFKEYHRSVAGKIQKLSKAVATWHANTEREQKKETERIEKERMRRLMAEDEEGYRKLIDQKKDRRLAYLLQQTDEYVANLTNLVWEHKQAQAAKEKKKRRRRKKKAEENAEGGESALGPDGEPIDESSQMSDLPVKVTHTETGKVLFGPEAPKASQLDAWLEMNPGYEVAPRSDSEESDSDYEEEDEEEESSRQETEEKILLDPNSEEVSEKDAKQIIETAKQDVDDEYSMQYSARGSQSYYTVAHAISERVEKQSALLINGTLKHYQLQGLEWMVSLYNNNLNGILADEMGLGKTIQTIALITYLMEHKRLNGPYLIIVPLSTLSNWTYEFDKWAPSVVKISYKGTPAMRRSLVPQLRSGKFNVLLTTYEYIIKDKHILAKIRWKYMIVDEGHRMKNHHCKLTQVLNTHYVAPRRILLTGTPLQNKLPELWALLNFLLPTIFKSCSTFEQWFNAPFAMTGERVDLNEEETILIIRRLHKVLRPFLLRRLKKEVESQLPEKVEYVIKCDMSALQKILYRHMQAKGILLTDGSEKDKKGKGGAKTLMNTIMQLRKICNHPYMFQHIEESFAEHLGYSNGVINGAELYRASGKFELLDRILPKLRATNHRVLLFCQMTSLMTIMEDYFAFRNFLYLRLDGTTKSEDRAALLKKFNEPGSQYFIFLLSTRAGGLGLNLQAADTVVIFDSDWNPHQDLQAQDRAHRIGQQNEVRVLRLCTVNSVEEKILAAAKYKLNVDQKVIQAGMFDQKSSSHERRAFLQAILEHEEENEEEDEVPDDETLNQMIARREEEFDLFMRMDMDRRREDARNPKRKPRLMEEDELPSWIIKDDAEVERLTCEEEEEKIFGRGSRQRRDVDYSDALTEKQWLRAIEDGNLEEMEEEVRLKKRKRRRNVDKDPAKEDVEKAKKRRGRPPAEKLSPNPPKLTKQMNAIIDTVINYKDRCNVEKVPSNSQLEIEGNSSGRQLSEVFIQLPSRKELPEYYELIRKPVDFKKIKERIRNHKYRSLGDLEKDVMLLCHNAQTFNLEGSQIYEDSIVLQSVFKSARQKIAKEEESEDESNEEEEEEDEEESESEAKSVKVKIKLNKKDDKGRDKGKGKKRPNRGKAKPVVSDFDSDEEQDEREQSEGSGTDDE
- test-details: PROTAC activity at VHL/SMARCA2 in human HT-1080 cells assessed as induction of SMARCA2 degradation by measuring maximum efficacy incubated for 6 hrs by Nano-Glo HiBiT Lytic Detection Assay relative to control
- Format: cell-based
measured-attribute: Emax (%)

molecule_smiles=Cc1ncsc1-c1ccc([C@H](C)NC(=O)[C@@H]2C[C@@H](O)CN2C(=O)[C@@H](c2cc(N3CCC(CN4CCC(c5ccc6c(c5)C(C)(C)c5nc(=O)c7c(Cl)cccc7n5-6)CC4)CC3)no2)C(C)C)cc1 unit_name=% reading=98
molecule_smiles=Cc1ncsc1-c1ccc([C@H](C)NC(=O)[C@@H]2C[C@@H](O)CN2C(=O)[C@@H](c2cc(N3CCC(CN4CCC(c5cccc6c5C(C)(C)c5nc(=O)c7c(Cl)cccc7n5-6)CC4)CC3)no2)C(C)C)cc1 unit_name=% reading=94
molecule_smiles=Cc1ncsc1-c1ccc([C@H](C)NC(=O)[C@@H]2C[C@@H](O)CN2C(=O)[C@@H](c2cc(OCCN3CCC(c4ccc5c(c4)C(C)(C)c4nc(=O)c6c(Cl)cccc6n4-5)CC3)no2)C(C)C)cc1 unit_name=% reading=96
molecule_smiles=Cc1ncsc1-c1ccc([C@H](C)NC(=O)[C@@H]2C[C@@H](O)CN2C(=O)[C@@H](c2cc(OCCCCN3CCC(c4ccc5c(c4)C(C)(C)c4nc(=O)c6c(Cl)cccc6n4-5)CC3)no2)C(C)C)cc1 unit_name=% reading=98
molecule_smiles=Cc1ncsc1-c1ccc([C@H](C)NC(=O)[C@@H]2C[C@@H](O)CN2C(=O)[C@@H](c2cc(OCC3(CN4CCC(c5ccc6c(c5)C(C)(C)c5nc(=O)c7c(Cl)cccc7n5-6)CC4)CC3)no2)C(C)C)cc1 unit_name=% reading=87
